Tested on: RARg homodimer (NR concentration 270 nM)
protocolNotes: PBM binding z-score (relative to random genomic background probes); higher = stronger binding; sequences stand for … in GC…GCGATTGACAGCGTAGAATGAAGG
Assign class by PBM binding z-score: not lower than 0.9 means TRUE; lower than 0.9 means FALSE.

Asked: State whether the measured PBM binding z-score reaches 0.9, counting equality as reaching it, for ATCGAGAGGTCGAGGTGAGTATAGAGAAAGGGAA
Given back: TRUE

Asked: State whether the measured PBM binding z-score reaches 0.9, counting equality as reaching it, for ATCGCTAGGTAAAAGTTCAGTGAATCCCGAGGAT
Given back: TRUE

Asked: State whether the measured PBM binding z-score reaches 0.9, counting equality as reaching it, for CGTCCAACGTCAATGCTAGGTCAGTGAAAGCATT
Given back: TRUE

Asked: State whether the measured PBM binding z-score reaches 0.9, counting equality as reaching it, for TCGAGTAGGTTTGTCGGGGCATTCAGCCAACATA
Given back: FALSE

Asked: State whether the measured PBM binding z-score reaches 0.9, counting equality as reaching it, for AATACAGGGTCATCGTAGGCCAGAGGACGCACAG
Given back: TRUE

Asked: State whether the measured PBM binding z-score reaches 0.9, counting equality as reaching it, for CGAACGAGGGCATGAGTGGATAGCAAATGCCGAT
Given back: TRUE

Asked: State whether the measured PBM binding z-score reaches 0.9, counting equality as reaching it, for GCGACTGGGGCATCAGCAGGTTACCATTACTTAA
Given back: FALSE

Asked: State whether the measured PBM binding z-score reaches 0.9, counting equality as reaching it, for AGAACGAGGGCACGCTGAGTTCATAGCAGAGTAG
Given back: TRUE

Asked: State whether the measured PBM binding z-score reaches 0.9, counting equality as reaching it, for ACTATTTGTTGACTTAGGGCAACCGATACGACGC
Given back: TRUE

Asked: State whether the measured PBM binding z-score reaches 0.9, counting equality as reaching it, for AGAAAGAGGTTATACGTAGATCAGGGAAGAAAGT
Given back: TRUE

Asked: State whether the measured PBM binding z-score reaches 0.9, counting equality as reaching it, for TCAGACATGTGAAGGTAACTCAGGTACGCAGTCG
Given back: FALSE

Asked: State whether the measured PBM binding z-score reaches 0.9, counting equality as reaching it, for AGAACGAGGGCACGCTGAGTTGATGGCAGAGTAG
Given back: TRUE

Asked: State whether the measured PBM binding z-score reaches 0.9, counting equality as reaching it, for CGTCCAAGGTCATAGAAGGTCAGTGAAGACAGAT
Given back: TRUE

Asked: State whether the measured PBM binding z-score reaches 0.9, counting equality as reaching it, for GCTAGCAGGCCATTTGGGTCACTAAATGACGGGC
Given back: TRUE

Asked: State whether the measured PBM binding z-score reaches 0.9, counting equality as reaching it, for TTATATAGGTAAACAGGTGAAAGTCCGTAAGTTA
Given back: FALSE

Asked: State whether the measured PBM binding z-score reaches 0.9, counting equality as reaching it, for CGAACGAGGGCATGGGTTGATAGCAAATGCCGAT
Given back: TRUE

Asked: State whether the measured PBM binding z-score reaches 0.9, counting equality as reaching it, for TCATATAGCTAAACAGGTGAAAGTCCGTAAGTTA
Given back: FALSE

Asked: State whether the measured PBM binding z-score reaches 0.9, counting equality as reaching it, for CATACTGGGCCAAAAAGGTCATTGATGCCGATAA
Given back: TRUE

Asked: State whether the measured PBM binding z-score reaches 0.9, counting equality as reaching it, for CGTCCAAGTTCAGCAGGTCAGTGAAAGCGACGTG
Given back: TRUE

Asked: State whether the measured PBM binding z-score reaches 0.9, counting equality as reaching it, for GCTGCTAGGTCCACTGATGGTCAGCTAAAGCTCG
Given back: FALSE

Asked: State whether the measured PBM binding z-score reaches 0.9, counting equality as reaching it, for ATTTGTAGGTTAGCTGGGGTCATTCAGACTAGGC
Given back: TRUE

Asked: State whether the measured PBM binding z-score reaches 0.9, counting equality as reaching it, for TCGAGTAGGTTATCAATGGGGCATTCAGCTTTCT
Given back: FALSE

Asked: State whether the measured PBM binding z-score reaches 0.9, counting equality as reaching it, for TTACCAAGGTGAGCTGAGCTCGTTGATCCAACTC
Given back: FALSE

Asked: State whether the measured PBM binding z-score reaches 0.9, counting equality as reaching it, for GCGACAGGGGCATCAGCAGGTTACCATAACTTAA
Given back: TRUE

Asked: State whether the measured PBM binding z-score reaches 0.9, counting equality as reaching it, for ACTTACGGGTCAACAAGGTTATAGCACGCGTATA
Given back: TRUE

Asked: State whether the measured PBM binding z-score reaches 0.9, counting equality as reaching it, for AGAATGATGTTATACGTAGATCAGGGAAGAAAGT
Given back: FALSE

Asked: State whether the measured PBM binding z-score reaches 0.9, counting equality as reaching it, for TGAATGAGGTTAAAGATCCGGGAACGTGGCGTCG
Given back: TRUE

Asked: State whether the measured PBM binding z-score reaches 0.9, counting equality as reaching it, for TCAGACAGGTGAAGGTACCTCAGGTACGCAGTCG
Given back: FALSE

Asked: State whether the measured PBM binding z-score reaches 0.9, counting equality as reaching it, for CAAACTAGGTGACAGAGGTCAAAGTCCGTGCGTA
Given back: TRUE

Asked: State whether the measured PBM binding z-score reaches 0.9, counting equality as reaching it, for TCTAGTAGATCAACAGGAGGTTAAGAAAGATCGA
Given back: FALSE

Asked: State whether the measured PBM binding z-score reaches 0.9, counting equality as reaching it, for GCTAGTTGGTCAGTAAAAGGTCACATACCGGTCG
Given back: TRUE

Asked: State whether the measured PBM binding z-score reaches 0.9, counting equality as reaching it, for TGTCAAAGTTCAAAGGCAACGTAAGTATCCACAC
Given back: TRUE

Asked: State whether the measured PBM binding z-score reaches 0.9, counting equality as reaching it, for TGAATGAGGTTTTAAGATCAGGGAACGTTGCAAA
Given back: FALSE

Asked: State whether the measured PBM binding z-score reaches 0.9, counting equality as reaching it, for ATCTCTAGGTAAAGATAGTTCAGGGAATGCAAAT
Given back: FALSE

Asked: State whether the measured PBM binding z-score reaches 0.9, counting equality as reaching it, for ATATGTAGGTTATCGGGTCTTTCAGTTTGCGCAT
Given back: TRUE

Asked: State whether the measured PBM binding z-score reaches 0.9, counting equality as reaching it, for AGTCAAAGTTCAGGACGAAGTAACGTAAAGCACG
Given back: TRUE

Asked: State whether the measured PBM binding z-score reaches 0.9, counting equality as reaching it, for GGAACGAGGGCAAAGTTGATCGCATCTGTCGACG
Given back: TRUE

Asked: State whether the measured PBM binding z-score reaches 0.9, counting equality as reaching it, for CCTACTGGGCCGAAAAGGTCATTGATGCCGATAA
Given back: TRUE

Asked: State whether the measured PBM binding z-score reaches 0.9, counting equality as reaching it, for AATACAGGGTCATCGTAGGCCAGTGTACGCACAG
Given back: TRUE

Asked: State whether the measured PBM binding z-score reaches 0.9, counting equality as reaching it, for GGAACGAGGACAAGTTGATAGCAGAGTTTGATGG
Given back: TRUE

Asked: State whether the measured PBM binding z-score reaches 0.9, counting equality as reaching it, for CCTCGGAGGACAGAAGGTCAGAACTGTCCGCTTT
Given back: TRUE

Asked: State whether the measured PBM binding z-score reaches 0.9, counting equality as reaching it, for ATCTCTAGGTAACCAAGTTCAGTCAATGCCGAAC
Given back: TRUE

Asked: State whether the measured PBM binding z-score reaches 0.9, counting equality as reaching it, for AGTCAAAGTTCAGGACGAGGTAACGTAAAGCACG
Given back: TRUE

* * *

Tested on: THRa homodimer (NR concentration 90 nM)
protocolNotes: PBM binding z-score (relative to random genomic background probes); higher = stronger binding; sequences stand for … in GC…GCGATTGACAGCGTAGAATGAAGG
Exercise: for every item that follows, state its recorded PBM binding z-score.
Give your answer as a number; write no unit.

Asked: Item CGTCCAAGGTCAATGCTAGGACAGTGAAAGCATT : provide PBM binding z-score
Given back: 2.32

Asked: Item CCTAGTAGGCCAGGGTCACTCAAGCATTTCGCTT : provide PBM binding z-score
Given back: 1.18

Asked: Item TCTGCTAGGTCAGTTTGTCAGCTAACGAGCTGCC : provide PBM binding z-score
Given back: 0.0715

Asked: Item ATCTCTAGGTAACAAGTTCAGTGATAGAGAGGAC : provide PBM binding z-score
Given back: 0.931
